These measurements were taken from patent US20080311126A1.

- System: A549 lung cell carcinoma
- protocol_summary: Relative colony forming efficiency (Example 17, Table 13)
- Type: cell-based, human
- reported_conditions: averages of 2-8 determinations
Oligonucleotides are written 5' to 3', each unit as a sugar letter and its base; * is a phosphorothioate linkage, no mark a phosphodiester; rarer units and linkages stand in square brackets, end groups in braces. Plain capitals give the bases only. d = 2'-deoxy (DNA)
measure_name: Reduced relative colony forming efficiency, A549 (% inhibition of colony forming ability)
Write the figure, then the unit, nothing else.

{"columns": ["chain", "data_value"],
 "data": [
  ["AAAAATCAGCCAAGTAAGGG (antisense dA*dA*dA*dA*dA*dT*dC*dA*dG*dC*dC*dA*dA*dG*dT*dA*dA*dG*dG*dG) [AS-II-1381-20]", "86.02%"],
  ["TGGCTGTGCTGGTTAAAGGA (antisense dT*dG*dG*dC*dT*dG*dT*dG*dC*dT*dG*dG*dT*dT*dA*dA*dA*dG*dG*dA) [AS-II-1659-20]", "54.7%"]
]}

What value of Reduced relative colony forming efficiency, A549 (% inhibition of colony forming ability) has been reported for the following sequence? TCCTTTATCCCACAACACTC (antisense dT*dC*dC*dT*dT*dT*dA*dT*dC*dC*dC*dA*dC*dA*dA*dC*dA*dC*dT*dC) [AS-II-2067-20] 64.71%

====

- Tested on: PC-3 prostrate cell adenocarcinoma
- protocol_summary: Relative colony forming efficiency (Example 17, Table 13)
- Type: cell-based, human
- reported_conditions: averages of 2-8 determinations
Oligonucleotides are written 5' to 3', each unit as a sugar letter and its base; * is a phosphorothioate linkage, no mark a phosphodiester; rarer units and linkages stand in square brackets, end groups in braces. Plain capitals give the bases only. d = 2'-deoxy (DNA)
measure_name: Reduced relative colony forming efficiency, PC-3 (% inhibition of colony forming ability) (%)
Provide the reading as a plain figure in %.

Solved entries:
{"columns": ["chain", "data_value"],
 "data": [
  ["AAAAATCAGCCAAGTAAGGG (antisense dA*dA*dA*dA*dA*dT*dC*dA*dG*dC*dC*dA*dA*dG*dT*dA*dA*dG*dG*dG) [AS-II-1381-20]", 75],
  ["CCAGCACTATAAACAGACAG (antisense dC*dC*dA*dG*dC*dA*dC*dT*dA*dT*dA*dA*dA*dC*dA*dG*dA*dC*dA*dG) [AS-II-1517-20]", 91.75],
  ["CGCGCTCCCGGCCC (antisense dC*dG*dC*dG*dC*dT*dC*dC*dC*dG*dG*dC*dC*dC) [AS-II-79-14]", 85.32],
  ["GCCACAGGATAAAAACACAA (antisense dG*dC*dC*dA*dC*dA*dG*dG*dA*dT*dA*dA*dA*dA*dA*dC*dA*dC*dA*dA) [AS-II-2009-20]", 83.36],
  ["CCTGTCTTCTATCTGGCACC (antisense dC*dC*dT*dG*dT*dC*dT*dT*dC*dT*dA*dT*dC*dT*dG*dG*dC*dA*dC*dC) [AS-II-1989-20]", 77.38]
]}

What value of Reduced relative colony forming efficiency, PC-3 (% inhibition of colony forming ability) has been reported for the following sequence? GGGCACATCTTCAGTTCATT (antisense dG*dG*dG*dC*dA*dC*dA*dT*dC*dT*dT*dC*dA*dG*dT*dT*dC*dA*dT*dT) [AS-II-1364-20] 79.01

What value of Reduced relative colony forming efficiency, PC-3 (% inhibition of colony forming ability) has been reported for the following sequence? AAACGGCTTCTCACACATAT (antisense dA*dA*dA*dC*dG*dG*dC*dT*dT*dC*dT*dC*dA*dC*dA*dC*dA*dT*dA*dT) [AS-II-2151-20] 84.86

What value of Reduced relative colony forming efficiency, PC-3 (% inhibition of colony forming ability) has been reported for the following sequence? TCGCTCCACCAAGTTTTCAT (antisense dT*dC*dG*dC*dT*dC*dC*dA*dC*dC*dA*dA*dG*dT*dT*dT*dT*dC*dA*dT) [AS-II-619-20] 88.01

What value of Reduced relative colony forming efficiency, PC-3 (% inhibition of colony forming ability) has been reported for the following sequence? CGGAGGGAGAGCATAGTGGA (antisense dC*dG*dG*dA*dG*dG*dG*dA*dG*dA*dG*dC*dA*dT*dA*dG*dT*dG*dG*dA) [AS-II-189-20] 73.12

What value of Reduced relative colony forming efficiency, PC-3 (% inhibition of colony forming ability) has been reported for the following sequence? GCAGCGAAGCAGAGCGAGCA (antisense dG*dC*dA*dG*dC*dG*dA*dA*dG*dC*dA*dG*dA*dG*dC*dG*dA*dG*dC*dA) [AS-II-166-20] 74.11

What value of Reduced relative colony forming efficiency, PC-3 (% inhibition of colony forming ability) has been reported for the following sequence? AGCTGCTGCGGGTCCGTGAT (antisense dA*dG*dC*dT*dG*dC*dT*dG*dC*dG*dG*dG*dT*dC*dC*dG*dT*dG*dA*dT) [AS-II-225-20] 30.06

What value of Reduced relative colony forming efficiency, PC-3 (% inhibition of colony forming ability) has been reported for the following sequence? GGAAGATGACAAAGCGGCGG (antisense dG*dG*dA*dA*dG*dA*dT*dG*dA*dC*dA*dA*dA*dG*dC*dG*dG*dC*dG*dG) [AS-II-425-20] 75.65

What value of Reduced relative colony forming efficiency, PC-3 (% inhibition of colony forming ability) has been reported for the following sequence? GCTCCCACATATGAAAACTC (antisense dG*dC*dT*dC*dC*dC*dA*dC*dA*dT*dA*dT*dG*dA*dA*dA*dA*dC*dT*dC) [AS-II-2229A-20] 89.58

What value of Reduced relative colony forming efficiency, PC-3 (% inhibition of colony forming ability) has been reported for the following sequence? GAGCAGCCAGGACAGGACGG (antisense dG*dA*dG*dC*dA*dG*dC*dC*dA*dG*dG*dA*dC*dA*dG*dG*dA*dC*dG*dG) [AS-II-151-20] 35.68

What value of Reduced relative colony forming efficiency, PC-3 (% inhibition of colony forming ability) has been reported for the following sequence? GAGAAATAAAATGAAACGGC (antisense dG*dA*dG*dA*dA*dA*dT*dA*dA*dA*dA*dT*dG*dA*dA*dA*dC*dG*dG*dC) [AS-II-2164-20] 83.36

====

Listing of entries alongside the reported Reduced relative colony forming efficiency, A549 (% inhibition of colony forming ability).
- System: A549 lung cell carcinoma
- protocol_summary: Relative colony forming efficiency (Example 17, Table 13)
- Assay type: cell-based, human
- reported_conditions: averages of 2-8 determinations
Oligonucleotides are written 5' to 3', each unit as a sugar letter and its base; * is a phosphorothioate linkage, no mark a phosphodiester; rarer units and linkages stand in square brackets, end groups in braces. Plain capitals give the bases only. d = 2'-deoxy (DNA)
Provide the reading as a plain figure in %.

Solved entries:
{"columns": ["substance", "readout_units", "data_value"],
 "data": [
  ["TCCTCGGCGGTCCAAA (antisense dT*dC*dC*dT*dC*dG*dG*dC*dG*dG*dT*dC*dC*dA*dA*dA) [AS-II-496-16]", "%", 74.45],
  ["CCCCTTCAGCGGCG (antisense dC*dC*dC*dC*dT*dT*dC*dA*dG*dC*dG*dG*dC*dG) [AS-II-253-14]", "%", 61.62],
  ["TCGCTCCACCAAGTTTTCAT (antisense dT*dC*dG*dC*dT*dC*dC*dA*dC*dC*dA*dA*dG*dT*dT*dT*dT*dC*dA*dT) [AS-II-619-20]", "%", 65.67],
  ["C*CCC*TCAC*TCC*AGC*AGC*CT*T (antisense dC*dCdCdC*dTdCdAdC*dTdCdC*dAdGdC*dAdGdC*dCdT*dT) [AS-II-109-20]", "%", 15.14],
  ["TGCCTCCGACCCTTCCCA (antisense dT*dG*dC*dC*dT*dC*dC*dG*dA*dC*dC*dC*dT*dT*dC*dC*dC*dA) [AS-II-16-18]", "%", 81.1]
]}

With those in mind, consider the next substance.
What value of Reduced relative colony forming efficiency, A549 (% inhibition of colony forming ability) has been reported for the following substance? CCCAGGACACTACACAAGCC (antisense dC*dC*dC*dA*dG*dG*dA*dC*dA*dC*dT*dA*dC*dA*dC*dA*dA*dG*dC*dC) [AS-II-2026-20] 88.81

====

- System: H596 lung adenosquamous carcinoma cells
- protocol_summary: Relative colony forming efficiency (Example 17, Table 13)
- Type: cell-based, human
- reported_conditions: averages of 2-8 determinations
Oligonucleotides are written 5' to 3', each unit as a sugar letter and its base; * is a phosphorothioate linkage, no mark a phosphodiester; rarer units and linkages stand in square brackets, end groups in braces. Plain capitals give the bases only. d = 2'-deoxy (DNA)
measure_name: Reduced relative colony forming efficiency, 11596 (% inhibition of colony forming ability) (%)
Provide the reading as a plain figure in %.

{"columns": ["substance", "data_value"],
 "data": [
  ["C*CCC*TCAC*TCC*AGC*AGC*CT*T (antisense dC*dCdCdC*dTdCdAdC*dTdCdC*dAdGdC*dAdGdC*dCdT*dT) [AS-II-109-20]", 7.28]
]}

What value of Reduced relative colony forming efficiency, 11596 (% inhibition of colony forming ability) has been reported for the following substance? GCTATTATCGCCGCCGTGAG (antisense dG*dC*dT*dA*dT*dT*dA*dT*dC*dG*dC*dC*dG*dC*dC*dG*dT*dG*dA*dG) [AS-II-1773-20] 66.04

What value of Reduced relative colony forming efficiency, 11596 (% inhibition of colony forming ability) has been reported for the following substance? CCCCTTCAGCGGCG (antisense dC*dC*dC*dC*dT*dT*dC*dA*dG*dC*dG*dG*dC*dG) [AS-II-253-14] 0.81

What value of Reduced relative colony forming efficiency, 11596 (% inhibition of colony forming ability) has been reported for the following substance? CCTTGCCCTGAGAGATTCCT (antisense dC*dC*dT*dT*dG*dC*dC*dC*dT*dG*dA*dG*dA*dG*dA*dT*dT*dC*dC*dT) [AS-II-2083-20] 82.98
